Taken from ChEMBL document CHEMBL1177772.

# measured target: 3-phosphoinositide-dependent protein kinase 1 (Homo sapiens, UniProt O15530)
# Sequence (O15530 whole entry): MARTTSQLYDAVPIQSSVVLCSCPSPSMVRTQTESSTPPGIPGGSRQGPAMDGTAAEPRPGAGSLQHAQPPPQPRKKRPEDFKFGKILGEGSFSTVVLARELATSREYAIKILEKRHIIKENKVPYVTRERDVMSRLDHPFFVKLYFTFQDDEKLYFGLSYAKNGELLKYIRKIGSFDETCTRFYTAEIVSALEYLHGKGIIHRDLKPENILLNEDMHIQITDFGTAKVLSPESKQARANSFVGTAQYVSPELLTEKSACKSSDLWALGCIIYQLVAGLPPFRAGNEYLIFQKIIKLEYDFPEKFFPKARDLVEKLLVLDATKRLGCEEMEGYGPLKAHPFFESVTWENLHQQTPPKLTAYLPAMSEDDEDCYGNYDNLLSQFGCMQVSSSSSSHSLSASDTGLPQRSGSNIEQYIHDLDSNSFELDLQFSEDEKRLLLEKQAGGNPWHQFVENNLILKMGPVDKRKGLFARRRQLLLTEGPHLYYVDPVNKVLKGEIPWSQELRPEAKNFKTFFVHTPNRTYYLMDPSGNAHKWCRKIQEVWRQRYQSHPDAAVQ
# run description: Displacement of PIFtide from His-tagged PDK1 by HTRF assay
# run conditions: read-out: EC50
measurement label: EC50 (µM)
Report only the number, with the unit µM understood.

Report value: EC50, system: 3-phosphoinositide-dependent protein kinase 1 (Homo sapiens, UniProt O15530), molecule: O=C(O)CN1C(=O)C(Sc2ccc(Cl)cc2Cl)CCc2ccccc21 (stereo not given)
75

State recorded EC50 with 3-phosphoinositide-dependent protein kinase 1 (Homo sapiens, UniProt O15530), entry COc1ccc(SC2CCc3ccccc3N(CC(=O)O)C2=O)cc1 (stereo not given) , no comment.
53

State the measured EC50 (3-phosphoinositide-dependent protein kinase 1 (Homo sapiens, UniProt O15530)) of O=C(O)CN1C(=O)C(Sc2ccccc2)CCc2ccccc21 (stereo not given)
101

Provide EC50, system 3-phosphoinositide-dependent protein kinase 1 (Homo sapiens, UniProt O15530), entry O=C(O)CN1C(=O)C(Nc2ccccc2)CCc2ccccc21 (stereo not given)
900

Give 3-phosphoinositide-dependent protein kinase 1 (Homo sapiens, UniProt O15530) EC50 for the following molecule: O=C(O)CN1C(=O)C(Sc2ccc(C(=O)O)cc2)CCc2ccccc21 (stereo not given)
187
